As shown below, each of these binders has a reported OD at dilution 2187000 value.
- measured_target: T1, recombinant protein consisting of the extracellular domain of human TREM2 fused to the His tag (human, UniProt Q9NZC2 19-174)
- T1 construct: also called His tagged hTREM2; His-TREM2
- T1 sequence: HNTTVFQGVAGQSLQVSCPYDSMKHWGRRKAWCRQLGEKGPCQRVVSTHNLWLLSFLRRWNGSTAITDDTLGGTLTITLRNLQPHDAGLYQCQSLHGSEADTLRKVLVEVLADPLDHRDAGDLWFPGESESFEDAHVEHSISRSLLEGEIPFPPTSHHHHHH
- assay_protocol: direct ELISA, coated His-TREM2 0.5 ug/mL, Ab stock 1 mg/mL
Give just the number in OD; leave the unit off.

Solved cases below.
binder="60H4G2 (antibody, V domains shown, Biotin conjugated in sup ELISA, cell-based ELISA and flow cytometry) VH: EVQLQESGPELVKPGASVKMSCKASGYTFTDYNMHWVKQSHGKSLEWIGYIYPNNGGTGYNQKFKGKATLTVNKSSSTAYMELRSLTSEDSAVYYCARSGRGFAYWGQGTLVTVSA VL: DIVMTQSTSSLTVTAGEKVTMSCKSSQSLLNSGNQKNYLTWYQQKPGQPPKLLIYWASSRESGVPDRFTGRGSGTDFTLTISSVQAEDLAVYYCQNDYSYPFTFGSGTKLEIK" numeric_value=0.133
binder="80E3C7 (antibody, V domains shown, Biotin conjugated in sup ELISA, cell-based ELISA and flow cytometry; also called anti-TREM2 antibody (E3C7); TREM2 Ab E3C7) VH: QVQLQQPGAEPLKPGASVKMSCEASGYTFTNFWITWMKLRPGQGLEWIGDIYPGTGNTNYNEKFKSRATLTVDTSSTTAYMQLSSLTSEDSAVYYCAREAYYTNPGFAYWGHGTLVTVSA VL: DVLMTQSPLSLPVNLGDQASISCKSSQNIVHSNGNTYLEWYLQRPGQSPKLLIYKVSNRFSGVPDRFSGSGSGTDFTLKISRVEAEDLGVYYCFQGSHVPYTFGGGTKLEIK" numeric_value=0.145

API: the following record is the query input.
Let me know recorded OD at dilution 2187000 for 60H4A3 (antibody, V domains shown, Biotin conjugated in sup ELISA, cell-based ELISA and flow cytometry) VH: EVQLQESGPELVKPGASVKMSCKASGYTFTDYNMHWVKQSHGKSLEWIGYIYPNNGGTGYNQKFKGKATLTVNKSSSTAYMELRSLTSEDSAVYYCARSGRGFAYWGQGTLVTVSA VL: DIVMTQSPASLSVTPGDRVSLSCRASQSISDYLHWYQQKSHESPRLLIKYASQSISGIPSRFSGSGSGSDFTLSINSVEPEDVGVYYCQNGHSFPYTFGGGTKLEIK , thanks.
0.17
